residual activity for assorted compounds
Biological target: RPS6KB1 (human) (UniProt P23443)
Sequence (P23443 whole entry, looked up): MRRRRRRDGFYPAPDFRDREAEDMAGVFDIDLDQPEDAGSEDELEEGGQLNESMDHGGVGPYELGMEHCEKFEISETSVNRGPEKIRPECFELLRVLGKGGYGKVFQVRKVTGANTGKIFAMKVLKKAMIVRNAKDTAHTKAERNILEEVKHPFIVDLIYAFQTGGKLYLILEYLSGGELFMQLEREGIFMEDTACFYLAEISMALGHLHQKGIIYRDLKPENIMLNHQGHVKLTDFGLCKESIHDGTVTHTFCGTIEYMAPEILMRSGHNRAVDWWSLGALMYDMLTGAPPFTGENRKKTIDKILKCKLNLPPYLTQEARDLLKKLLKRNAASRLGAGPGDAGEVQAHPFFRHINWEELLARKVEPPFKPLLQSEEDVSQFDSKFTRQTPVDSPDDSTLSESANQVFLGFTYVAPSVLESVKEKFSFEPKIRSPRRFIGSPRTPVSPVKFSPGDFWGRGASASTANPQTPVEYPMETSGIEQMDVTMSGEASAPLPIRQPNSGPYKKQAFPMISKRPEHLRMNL
Assay: radiometric filter-binding kinase assay, Kinase HotSpot
Settings: compound 0.5 µM; ATP 10 µM
Write it as a number; the unit % goes unstated.

[[record]]
compound = "CCN(CC)C(=O)c1ccc(Nc2nc(OCC3CCCCC3)c3nc[nH]c3n2)cc1"
unit_string = "%"
value_observed = 89.5

[[record]]
compound = "N#CC(C#N)=C(N)/C(C#N)=C/c1ccc(O)cc1"
unit_string = "%"
value_observed = 89.5

[[record]]
compound = "CO[C@H]1CC2CC[C@@H](C)[C@@](O)(O2)C(=O)C(=O)N2CCCC[C@H]2C(=O)OC([C@H](C)C[C@@H]2CC[C@@H](O)[C@H](OC)C2)CC(=O)[C@H](C)/C=C(\\C)[C@@H](O)[C@@H](OC)C(=O)[C@H](C)C[C@H](C)/C=C/C=C/C=C/1C (some centres undefined)"
unit_string = "%"
value_observed = 92.6


// next item, residual activity requested
Which residual activity reading was recorded for the compound COc1cc2ncnc(Nc3cccc(Cl)c3)c2cc1OC ?
88.5

====

Biological target: DAPK2 (human) (UniProt Q9UIK4)
Sequence (Q9UIK4 whole entry, looked up): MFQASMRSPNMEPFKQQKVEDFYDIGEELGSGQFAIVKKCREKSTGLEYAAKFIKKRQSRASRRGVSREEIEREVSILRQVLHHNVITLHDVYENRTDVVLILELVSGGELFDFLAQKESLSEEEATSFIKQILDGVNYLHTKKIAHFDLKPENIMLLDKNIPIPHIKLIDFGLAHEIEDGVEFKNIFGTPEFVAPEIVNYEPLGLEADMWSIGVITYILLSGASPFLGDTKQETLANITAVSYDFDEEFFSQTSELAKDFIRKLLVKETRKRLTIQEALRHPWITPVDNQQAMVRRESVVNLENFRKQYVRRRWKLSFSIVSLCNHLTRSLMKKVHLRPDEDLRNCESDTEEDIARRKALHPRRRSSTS
Test: radiometric filter-binding kinase assay, Kinase HotSpot
Conditions: compound 0.5 µM; ATP 10 µM
measurement_type: residual activity (%)
Write it as a number; the unit % goes unstated.

[[record]]
structure_as_smiles = "CC(=O)c1ccc(N2CCOCC2)cc1O"
value_observed = 106

[[record]]
structure_as_smiles = "COc1ccc(COc2ccc(Cc3cnc(N)nc3N)cc2OC)cc1"
value_observed = 95.3

[[record]]
structure_as_smiles = "Oc1cccc(-c2nc(N3CCOCC3)c3oc4ncccc4c3n2)c1"
value_observed = 117

[[record]]
structure_as_smiles = "CNc1cc2c(Nc3cccc(Br)c3)ncnc2cn1"
value_observed = 136

[[record]]
structure_as_smiles = "c1ccc(-c2n[nH]cc2-c2ccnc3ccccc23)nc1"
value_observed = 102

[[record]]
structure_as_smiles = "CC(C)N(CCC(=O)c1ccc2ccccc2c1)Cc1ccccc1"
value_observed = 99.6


Which residual activity reading was recorded for the compound COc1ccc2c(c[n+](C)c3c4cc5c(cc4ccc23)OCO5)c1OC ?
93.9

Please answer likewise for Nc1cccc(-c2cc3c(Oc4cccc(O)c4)ncnc3[nH]2)c1
106

Please answer likewise for CC[n+]1c(/C=C/N(C)c2ccccc2)n(-c2ccccc2)c2ccc(-c3nc4ccccc4s3)cc21
94.3

Please answer likewise for CC#CC(=O)Nc1cc2c(Nc3ccc(F)c(Cl)c3)ncnc2cn1
105

====

Target: SGK3 (human)
Assay: radiometric filter-binding kinase assay, Kinase HotSpot
Conditions: compound 0.5 µM; ATP 10 µM
residual activity for assorted molecules
Write it as a number; the unit % goes unstated.

The cases that follow already have their residual activity on record.
[[record]]
structure_as_smiles = "O=C1Nc2ccc(Cl)cc2/C1=C/c1cc(Cl)c(O)c(Cl)c1"
system_under_test = "SGK3 (human)"
measurement_type = "residual activity"
unit_string = "%"
value_observed = 98.6

[[record]]
structure_as_smiles = "O=S(=O)(c1cccc2cnccc12)N1CCCNCC1"
system_under_test = "SGK3 (human)"
measurement_type = "residual activity"
unit_string = "%"
value_observed = 91.6

[[record]]
structure_as_smiles = "c1ccc(-c2n[nH]cc2-c2ccnc3ccccc23)nc1"
system_under_test = "SGK3 (human)"
measurement_type = "residual activity"
unit_string = "%"
value_observed = 97.4

[[record]]
structure_as_smiles = "Cc1[nH]c(/C=C2\\C(=O)Nc3ccc(S(=O)(=O)N(C)c4cccc(Cl)c4)cc32)c(C)c1C(=O)N1CCN(C)CC1"
system_under_test = "SGK3 (human)"
measurement_type = "residual activity"
unit_string = "%"
value_observed = 101


Which residual activity reading was recorded for the molecule O=C1NC(=O)c2c1c1c3ccccc3n3c1c1c2c2ccccc2n1C1CCC3O1 ?
71.7

====

Target: EPHA1 (human) (UniProt P21709)
Sequence (P21709 whole entry, looked up): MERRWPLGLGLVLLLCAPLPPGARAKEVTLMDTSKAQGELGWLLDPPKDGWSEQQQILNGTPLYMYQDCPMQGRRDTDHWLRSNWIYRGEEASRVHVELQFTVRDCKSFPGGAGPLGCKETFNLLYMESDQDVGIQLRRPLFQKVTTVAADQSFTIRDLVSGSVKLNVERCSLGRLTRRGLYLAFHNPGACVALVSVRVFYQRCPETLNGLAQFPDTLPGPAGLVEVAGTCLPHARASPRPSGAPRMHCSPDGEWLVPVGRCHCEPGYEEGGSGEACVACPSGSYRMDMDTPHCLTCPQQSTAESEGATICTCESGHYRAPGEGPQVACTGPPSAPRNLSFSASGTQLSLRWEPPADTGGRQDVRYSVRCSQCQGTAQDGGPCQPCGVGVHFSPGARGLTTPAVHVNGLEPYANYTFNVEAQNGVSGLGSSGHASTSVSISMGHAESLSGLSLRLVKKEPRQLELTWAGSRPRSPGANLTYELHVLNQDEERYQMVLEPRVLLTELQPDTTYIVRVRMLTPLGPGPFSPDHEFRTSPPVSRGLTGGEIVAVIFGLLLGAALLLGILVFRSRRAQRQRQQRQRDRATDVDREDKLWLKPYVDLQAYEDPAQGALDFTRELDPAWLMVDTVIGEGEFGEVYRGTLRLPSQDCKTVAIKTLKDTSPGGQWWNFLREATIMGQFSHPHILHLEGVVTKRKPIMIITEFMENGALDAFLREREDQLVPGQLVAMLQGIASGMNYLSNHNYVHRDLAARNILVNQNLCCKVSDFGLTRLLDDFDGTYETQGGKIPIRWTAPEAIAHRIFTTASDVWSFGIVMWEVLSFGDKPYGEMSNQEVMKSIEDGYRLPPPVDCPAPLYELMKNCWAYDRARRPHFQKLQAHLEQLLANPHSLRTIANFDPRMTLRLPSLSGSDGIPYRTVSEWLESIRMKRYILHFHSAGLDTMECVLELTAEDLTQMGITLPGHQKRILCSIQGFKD
Experiment: radiometric filter-binding kinase assay, Kinase HotSpot
Settings: compound 0.5 µM; ATP 10 µM
residual activity for assorted molecules
Write it as a number; the unit % goes unstated.

[[record]]
structure_as_smiles = "CCCC(=O)Oc1ccc2[nH]c(C(=O)c3cc4ccccc4[nH]3)cc2c1"
measurement_type = "residual activity"
value_observed = 88.8

[[record]]
structure_as_smiles = "CC(C)N(CCC(=O)c1ccc2ccccc2c1)Cc1ccccc1"
measurement_type = "residual activity"
value_observed = 92.4

[[record]]
structure_as_smiles = "O=C1NC(=O)c2c1c1c3ccccc3n3c1c1c2c2ccccc2n1C1CCC3O1"
measurement_type = "residual activity"
value_observed = 90.1


Which residual activity reading was recorded for the molecule O=C1NC(=O)/C(=C/c2ccc3c(c2)OC(F)(F)O3)S1 ?
90.2

Please answer likewise for CCOC(=O)c1c(C)[nH]c(/C=C2\C(=O)Nc3ccccc32)c1C
90.8

Please answer likewise for CCN(CC)CCNC(=O)c1c(C)[nH]c(/C=C2\C(=O)Nc3ccc(Cl)cc32)c1C
89.4

Please answer likewise for Oc1cccc(-c2nc(N3CCOCC3)c3oc4ncccc4c3n2)c1
87.8

Please answer likewise for CCN(CC)C(=O)c1ccc(Nc2nc(OCC3CCCCC3)c3nc[nH]c3n2)cc1
90.2

====

Target: NTRK1 (human) (UniProt P04629)
Sequence (P04629 whole entry, looked up): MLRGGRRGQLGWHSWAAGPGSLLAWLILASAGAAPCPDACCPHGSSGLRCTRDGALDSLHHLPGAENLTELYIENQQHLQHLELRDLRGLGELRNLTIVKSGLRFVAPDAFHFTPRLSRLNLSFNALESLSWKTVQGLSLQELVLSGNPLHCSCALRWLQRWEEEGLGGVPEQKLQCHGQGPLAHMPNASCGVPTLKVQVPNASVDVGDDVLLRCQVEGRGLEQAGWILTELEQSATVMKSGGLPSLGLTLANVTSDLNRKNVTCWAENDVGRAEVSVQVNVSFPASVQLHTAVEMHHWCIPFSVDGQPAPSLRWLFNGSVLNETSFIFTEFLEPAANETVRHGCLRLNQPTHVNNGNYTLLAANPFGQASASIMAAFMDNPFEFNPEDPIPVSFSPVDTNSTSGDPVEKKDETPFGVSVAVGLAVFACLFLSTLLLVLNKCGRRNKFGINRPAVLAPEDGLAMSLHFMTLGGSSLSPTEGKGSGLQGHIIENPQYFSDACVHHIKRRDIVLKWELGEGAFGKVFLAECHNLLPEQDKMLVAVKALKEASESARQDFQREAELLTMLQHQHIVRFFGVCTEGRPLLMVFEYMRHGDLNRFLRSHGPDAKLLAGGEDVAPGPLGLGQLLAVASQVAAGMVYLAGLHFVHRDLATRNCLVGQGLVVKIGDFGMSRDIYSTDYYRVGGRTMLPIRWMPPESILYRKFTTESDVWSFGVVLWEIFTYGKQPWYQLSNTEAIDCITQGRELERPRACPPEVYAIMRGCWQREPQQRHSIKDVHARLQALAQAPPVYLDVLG
Assay: radiometric filter-binding kinase assay, Kinase HotSpot
Settings: compound 0.5 µM; ATP 10 µM
residual activity for assorted compounds
Write it as a number; the unit % goes unstated.

[[record]]
structure_as_smiles = "Nc1cccc(-c2cc3c(Oc4cccc(O)c4)ncnc3[nH]2)c1"
measurement_type = "residual activity"
value_observed = 90.5

[[record]]
structure_as_smiles = "COc1ccc2c(c[n+](C)c3c4cc5c(cc4ccc23)OCO5)c1OC"
measurement_type = "residual activity"
value_observed = 89.8

[[record]]
structure_as_smiles = "c1ccc(-c2n[nH]cc2-c2ccnc3ccccc23)nc1"
measurement_type = "residual activity"
value_observed = 102

[[record]]
structure_as_smiles = "CCC(=O)Nc1ccc2ncnc(Nc3cccc(Br)c3)c2c1"
measurement_type = "residual activity"
value_observed = 95.8

[[record]]
structure_as_smiles = "Nc1ncnc2c1c(-c1ccc(Oc3ccccc3)cc1)cn2C1CCCC1"
measurement_type = "residual activity"
value_observed = 94.3


Which residual activity reading was recorded for the compound O=S(=O)(c1cccc2cnccc12)N1CCCNCC1 ?
89.6

Please answer likewise for CNC(=O)c1cc(Oc2ccc(NC(=O)Nc3ccc(Cl)c(C(F)(F)F)c3)cc2)ccn1
76.1

Please answer likewise for O=c1cc(N2CCOCC2)oc2c1ccc1ccccc12
96.4

Please answer likewise for N#C/C(=C(/N)Sc1ccc(N)cc1)c1ccccc1C(F)(F)F
109

Please answer likewise for O=C1Nc2ccc(Cl)cc2/C1=C/c1cc(Cl)c(O)c(Cl)c1
87.4

Please answer likewise for CCCC(=O)Oc1ccc2[nH]c(C(=O)c3cc4ccccc4[nH]3)cc2c1
98.6

Please answer likewise for CCOC(=O)c1c(C)[nH]c(/C=C2\C(=O)Nc3ccccc32)c1C
69.9

Please answer likewise for COc1cc2ncnc(Nc3cccc(Cl)c3)c2cc1OC
92.6

Please answer likewise for Cc1ccc(Nc2nccc(N(C)c3ccc4c(C)n(C)nc4c3)n2)cc1S(N)(=O)=O
91.8

Please answer likewise for CNc1cc2c(Nc3cccc(Br)c3)ncnc2cn1
95.9

====

residual activity for assorted compounds
Biological target: BLK (human) (UniProt P51451)
Sequence (P51451 whole entry, looked up): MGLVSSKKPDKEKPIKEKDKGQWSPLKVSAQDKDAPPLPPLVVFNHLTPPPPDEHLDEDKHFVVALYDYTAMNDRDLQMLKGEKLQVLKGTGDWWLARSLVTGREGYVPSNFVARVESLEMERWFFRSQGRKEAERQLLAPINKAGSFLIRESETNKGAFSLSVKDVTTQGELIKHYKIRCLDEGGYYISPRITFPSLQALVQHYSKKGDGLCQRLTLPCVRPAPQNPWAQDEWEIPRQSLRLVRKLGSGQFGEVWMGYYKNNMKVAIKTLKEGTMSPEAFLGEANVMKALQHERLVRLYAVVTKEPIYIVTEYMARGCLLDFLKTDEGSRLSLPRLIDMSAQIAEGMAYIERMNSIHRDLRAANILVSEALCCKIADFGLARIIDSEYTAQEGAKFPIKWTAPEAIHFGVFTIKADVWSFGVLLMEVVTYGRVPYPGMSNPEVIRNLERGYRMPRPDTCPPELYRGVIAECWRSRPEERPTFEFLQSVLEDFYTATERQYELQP
Assay: radiometric filter-binding kinase assay, Kinase HotSpot
Conditions: compound 0.5 µM; ATP 10 µM
Write it as a number; the unit % goes unstated.

The cases that follow already have their residual activity on record.
[[record]]
structure_as_smiles = "COc1ccc2c(c[n+](C)c3c4cc5c(cc4ccc23)OCO5)c1OC"
system_under_test = "BLK (human) (UniProt P51451)"
measurement_type = "residual activity"
value_observed = 98.7

[[record]]
structure_as_smiles = "CC#CC(=O)Nc1cc2c(Nc3ccc(F)c(Cl)c3)ncnc2cn1"
system_under_test = "BLK (human) (UniProt P51451)"
measurement_type = "residual activity"
value_observed = 21.3

[[record]]
structure_as_smiles = "O=C1NC(=O)c2c1c1c3ccccc3n3c1c1c2c2ccccc2n1C1CCC3O1"
system_under_test = "BLK (human) (UniProt P51451)"
measurement_type = "residual activity"
value_observed = 37.7


// next item, residual activity requested
Which residual activity reading was recorded for the compound CC(C)N(CCC(=O)c1ccc2ccccc2c1)Cc1ccccc1 ?
106

====

Molecular target: RET (human) (UniProt P07949)
Sequence (P07949 whole entry, looked up): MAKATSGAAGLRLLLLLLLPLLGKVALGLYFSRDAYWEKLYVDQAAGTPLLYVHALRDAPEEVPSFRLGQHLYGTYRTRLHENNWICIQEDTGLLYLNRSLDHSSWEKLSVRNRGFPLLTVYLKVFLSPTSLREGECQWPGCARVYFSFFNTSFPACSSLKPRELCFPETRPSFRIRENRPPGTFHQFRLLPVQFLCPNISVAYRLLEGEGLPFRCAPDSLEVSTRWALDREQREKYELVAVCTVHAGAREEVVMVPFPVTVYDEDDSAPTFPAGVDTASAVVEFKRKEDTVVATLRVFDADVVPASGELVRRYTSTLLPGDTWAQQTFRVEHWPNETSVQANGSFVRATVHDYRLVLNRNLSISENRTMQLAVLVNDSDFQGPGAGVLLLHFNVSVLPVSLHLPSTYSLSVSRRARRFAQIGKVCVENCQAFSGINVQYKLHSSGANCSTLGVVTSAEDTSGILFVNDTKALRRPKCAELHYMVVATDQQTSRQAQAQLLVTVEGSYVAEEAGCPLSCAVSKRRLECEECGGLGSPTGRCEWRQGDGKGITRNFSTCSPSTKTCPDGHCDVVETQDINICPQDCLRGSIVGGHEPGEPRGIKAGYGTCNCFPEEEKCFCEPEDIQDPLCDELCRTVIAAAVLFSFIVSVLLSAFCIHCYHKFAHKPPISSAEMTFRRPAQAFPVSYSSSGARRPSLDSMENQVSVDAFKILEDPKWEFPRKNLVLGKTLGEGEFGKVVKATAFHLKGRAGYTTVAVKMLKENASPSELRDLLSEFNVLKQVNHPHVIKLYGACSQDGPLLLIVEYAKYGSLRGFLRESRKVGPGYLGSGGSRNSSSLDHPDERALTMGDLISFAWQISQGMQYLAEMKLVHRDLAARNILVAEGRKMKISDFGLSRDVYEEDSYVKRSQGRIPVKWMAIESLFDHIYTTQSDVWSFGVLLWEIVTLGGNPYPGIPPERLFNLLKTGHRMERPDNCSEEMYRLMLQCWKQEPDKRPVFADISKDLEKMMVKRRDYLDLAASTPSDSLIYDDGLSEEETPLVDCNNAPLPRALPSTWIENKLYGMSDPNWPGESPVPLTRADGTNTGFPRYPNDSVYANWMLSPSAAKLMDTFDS
Test: radiometric filter-binding kinase assay, Kinase HotSpot
Conditions: compound 0.5 µM; ATP 10 µM
measurement_type: residual activity (%)
Write it as a number; the unit % goes unstated.

[[record]]
structure_as_smiles = "CNc1cc2c(Nc3cccc(Br)c3)ncnc2cn1"
measurement_type = "residual activity"
unit_string = "%"
value_observed = 78.5

[[record]]
structure_as_smiles = "O=C1Nc2ccc(Cl)cc2/C1=C/c1cc(Cl)c(O)c(Cl)c1"
measurement_type = "residual activity"
unit_string = "%"
value_observed = 80.4

[[record]]
structure_as_smiles = "c1ccc(-c2n[nH]c3c2oc2ccccc23)cc1"
measurement_type = "residual activity"
unit_string = "%"
value_observed = 78.2


// next item, residual activity requested
Which residual activity reading was recorded for the compound Nc1ncnc2[nH]nc(Nc3ccc(F)cc3)c12 ?
78.1

Source listed as the kinase profiling compilation of Christmann-Franck et al. (2016).
